# assayMethodText: COS7 lysate on small-molecule microarray, probe aHis, 635 nm (AID 1123);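 note: z-score combines 667nm fluorescence intensity with signal-to-noise per printed compound spot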
# runParameters: COS7 cell lysate, fluorescence, higher = more signal
// composite z-score lookup, one value per entry
The answer should be written as a number, with no unit following it.

{"compound": "CN(C)CCCCNC(=O)[C@@H]1C[C@@H]2C(=O)N[C@@H](CCCCN)C(=O)N2[C@@H]1c1cccc(OCCO)c1", "quantitativeReadout": 2.85}
{"compound": "C=CCC(OC(C)=O)[C@@H]1[C@@H](N(Cc2cc3ccccc3o2)C(=O)c2cccc3ccccc23)c2cc(OCCCO)ccc2N1C(=O)Cc1ccc(OC)cc1 (stereo partly specified)", "quantitativeReadout": 0.497}
{"compound": "C=CCOC(=O)[C@H]1[C@@H]2C(=O)O[C@@H](c3ccccc3)[C@@H](c3ccccc3)N2[C@@H](c2ccc(OCCOC(=O)[C@@H]3C[C@@H]4C(=O)NCC(=O)N4[C@@H]3c3ccc(O)cc3)cc2)[C@]12C(=O)Nc1ccc(I)cc12", "quantitativeReadout": 1.71}

The reported value for COCCCNC(=O)[C@]1(Cc2ccccc2N=[N+]=[N-])N=C(c2ccc(OCCCO)cc2)O[C@@H]1c1ccccc1CN=[N+]=[N-] in terms of composite z-score is 2.51

The compound identified as CC(C)C(CO)N1C(=O)[C@@H]2[C@H]3C(=O)OCC=C[C@H]3OC23C=CCN(c2ccc4ccccc4c2)C(=O)[C@@H]13 (stereo partly specified) registered its composite z-score at -0.572

# composite z-score of COCCOC(=O)N1C(=O)[C@@]2(c3cc(C#CC4=CCCCC4)ccc31)[C@H](c1ccc(OCCO)cc1)N1[C@H](c3ccccc3)[C@H](c3ccccc3)OC(=O)[C@H]1[C@@H]2C(=O)Nc1nc2ccccc2s1 = 0.999

* * *

# assayMethodText: inhibition of PAO1 biofilm formation – strain PAO1, LB-PBS medium, absorbance 600 nm, primary screen (AID 1176); note: test concentration not given here
# runParameters: P. aeruginosa PAO1 growth/biofilm, A600, 12 h; higher = more signal
z-score of 0.4 or higher: satisfied. Under 0.4: not satisfied.

Examples with answers:
{"compound": "COCCOC(=O)N1C(=O)[C@@]2(c3cc(C#CCC(C(=O)OC)C(=O)OC)ccc31)[C@H](c1ccc(OCCO)cc1)N1[C@H](c3ccccc3)[C@H](c3ccccc3)OC(=O)[C@H]1[C@@H]2C(=O)NC[C@H](O)c1ccccc1", "category": "satisfied"}
{"compound": "CCCCCCC#C[Si](O[C@H](c1ccccc1)c1cn([C@H](C)c2ccccc2)nn1)(C(C)C)C(C)C", "category": "not satisfied"}
{"compound": "[N-]=[N+]=Nc1ccccc1C[C@]1(C(=O)N2CCCCC2)N=C(c2ccc(OCCCO)cc2)O[C@H]1c1ccccc1N=[N+]=[N-]", "category": "satisfied"}
{"compound": "C=C(C(=O)CC[C@H](OC(=O)c1cccnc1)c1ccccc1OCCO)C(C)C", "category": "satisfied"}
{"compound": "O=C1OCCC=C[C@H]2OC34C=CCN(CCN5CCOCC5)C(=O)[C@H]3N(CCO)C(=O)[C@@H]4C12 (some centres not stated)", "category": "not satisfied"}

[Q] Item O=C1C2C=CC(C(O)c3ccc(-c4ccccc4)s3)N(Nc3ccccc3F)C2C(=O)N1c1ccccc1 (configuration not stated) with z-score of 0.4 or above?
[A] not satisfied

[Q] Has COCCCNC(=O)[C@@]1(Sc2ccc(C)cc2)CC(=O)N(Cc2ccccc2)[C@@H]1c1ccc(CO)cc1 a recorded z-score greater than or equal to 0.4?
[A] not satisfied

* * *

The following compounds are shown together with reported z-score values.
# assayMethodText: growth effects on S. cerevisiae YJM789 – YJM789 clinical isolate, OD600, 24 h, basal, primary screen (AID 1089);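 note: growth of clinical yeast isolate S. cerevisiae YJM 789 seeded 1000 cells per well; test concentration not given here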
# runParameters: higher = more signal, called active from +8 up or from −8 down
No unit in the answer, only the number.

{"compound": "O=S(=O)(NCCCO)c1ccc(Br)cc1", "z-score": -1.72}
{"compound": "NC(=O)[C@@]1(CCS(=O)(=O)c2ccccc2)N=C(c2ccc(OCCCO)cc2)O[C@H]1c1ccccc1", "z-score": -0.0366}
{"compound": "COCCOC(=O)N1C(=O)[C@@]2(c3cc(C#CC4=CCCCC4)ccc31)[C@H](C(=O)N1CCN(c3ncccn3)CC1)[C@H]1C(=O)O[C@H](c3ccccc3)[C@H](c3ccccc3)N1[C@@H]2c1ccc(OCCO)cc1", "z-score": 1.48}

The measured z-score associated with COc1ccc(C(O)C2C=CC3C(=O)N(c4ccccc4)C(=O)C3N2Nc2ccccc2)c2ccccc12 (configuration not stated) reads -1.41

Query C=CCCN(CC#C[C@H]1Oc2ccccc2S(=O)(=O)N2CCC[C@@H]12)S(=O)(=O)c1ccc(C)cc1 yields z-score of 1.15

Notebook: CC(=O)NCCCC[C@@H]1NC(=O)[C@@H]2C[C@H](C(=O)NCc3ccc(F)cc3)[C@H](c3ccc(O)cc3)N2C1=O , z-score read as -0.36

Input [N-]=[N+]=Nc1ccccc1[C@@H]1OC(c2ccc(OCCCO)cc2)=N[C@]1(CCS(=O)(=O)c1ccccc1)C(=O)N1CCCCC1 . Output z-score: 0.436

* * *

# system: NADPH oxidase 4 (Homo sapiens)
# assayMethodText: compounds shifting NOX4 Amplex Red fluorescence – cell-based, HEK293-NOX4, tetracycline-induced, NOX inhibitor project, primary screen (AID 1160)
# runParameters: HEK293-NOX4, Amplex Red H2O2 fluorescence, 45 min; higher = more signal, called active from +8 up or from −8 down
measuredParameter: z-score
A bare number is all that is needed in reply.

{"molecule": "COc1ccc([Si](C)(C)[C@H]2[C@H](CC(=O)N3CCC[C@H]3CO)O[C@@]3(C(=O)N(Cc4cccc(N5CCC5=O)c4)c4ccccc43)[C@@H]2C)cc1", "z-score": 0.777}
{"molecule": "CN1C(=O)C2C(C1=O)C1C=C(c3ccc(CO)cc3)C2C(C2CC2)N1Cc1sc2ccccc2c1Cl (configuration not stated)", "z-score": -0.852}
{"molecule": "COc1cc(CO)cc(I)c1O[C@H]1C=C(C(=O)NCCO)C[C@@H](N(CCc2cccc(F)c2)C(=O)CCC2CCCC2)[C@@H]1O", "z-score": 0.145}
{"molecule": "O=C1OCCC=C[C@H]2OC34C=CCN(CCN5CCOCC5)C(=O)[C@H]3N(CCO)C(=O)[C@@H]4C12 (some centres not stated)", "z-score": 0.49}
{"molecule": "CCOC(=O)C[C@H]1[C@H](OC(=O)c2ccccc2-c2ccccc2)[C@@H](NC(=O)c2ccc(-c3ccccc3)cc2)c2cc(OCCCO)ccc2N1C(=O)c1ccccc1", "z-score": 0.169}

Reported z-score of CN(C)CCCCNC(=O)[C@@H]1C[C@@H]2C(=O)N[C@@H](CCCCN)C(=O)N2[C@@H]1c1cccc(OCCO)c1 : 1.05

Form: molecule = C=CC[C@@]1(C(=O)OC)N=C(c2ccc(OCCCO)cc2)O[C@@H]1c1ccccc1CN=[N+]=[N-] ; z-score = 0.419

* * *

Listed here: items and their measured z-score.
# assayMethodText: budding yeast growth changes without added modifier – OD600, strain BY4716, 24 h, basal condition, primary screen (AID 1173)
# runParameters: S. cerevisiae BY4716 growth, OD600, 24 h; higher = more signal, called active from +8 up or from −8 down
Form field (numeric): enter value without unit.

{"compound": "CCN(CC)c1ccc(N2CC=CC34O[C@@H]5C=CCCOC(=O)C5[C@H]3C(=O)N(CCCO)[C@@H]4C2=O)cc1 (stereo not given in full)", "quantitativeReadout": -1.25}
{"compound": "Cn1c2c(c3ccccc31)C(=O)C1NC2C=CC1(C)C(=O)OCc1ccccc1 (stereo not given)", "quantitativeReadout": 0.272}
{"compound": "C=C[C@H](C)[C@H](OC(=O)Nc1ccc(OC)cc1)c1ccc(O)c2ccccc12", "quantitativeReadout": -18.5}
{"compound": "COC(=O)[C@@]1(Cc2ccccc2)[C@H]2c3cc(C(=O)N(C)C)n(Cc4cc(F)c(F)c(F)c4)c3C[C@H]2CN1C(=O)c1ccccc1", "quantitativeReadout": 0.989}

Lab note: next compound to report on.
Record NC(=O)[C@@]1(CCS(=O)(=O)c2ccccc2)N=C(c2ccc(OCCCO)cc2)O[C@H]1c1ccccc1 . Reported z-score: -1.38

* * *

# assayMethodText: growth of efflux-deficient E. coli DRC39 – strain DRC39, OD650, 24 h, E. coli filamentation inducers, primary screen (AID 1178);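 note: growth measured as culture turbidity by optical density at 650 nm; test concentration not given here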
# runParameters: E. coli DRC39 acrAB, higher = more signal, called active from +8 up or from −8 down
measuredParameter: z-score
Give the value as a plain number.

{"compound": "C=CCC(OC(C)=O)[C@@H]1[C@@H](N(Cc2cc3ccccc3o2)C(=O)c2cccc3ccccc23)c2cc(OCCCO)ccc2N1C(=O)Cc1ccc(OC)cc1 (some centres not stated)", "z-score": -0.386}

Kindly note the recorded z-score for CCOC(=O)C1=CC[C@@H](c2ccccc2)N(S(=O)(=O)c2ccc(C)cc2)[C@H]1c1ccc(C#N)cc1 , which is -0.604

get_value(item= CCCNC(=O)[C@@]1(C)c2ccccc2C(=O)N(Cc2cc(F)cc(C(F)(F)F)c2)[C@H]1c1ccc(CO)cc1 , readout=z-score) returns 0.249

NC(=O)NCC#Cc1ccc2c(c1)[C@]1(C(=O)N2)[C@H](c2ccccc2OCCO)N2[C@H](c3ccccc3)[C@H](c3ccccc3)OC(=O)[C@H]2[C@@H]1C(=O)N1CCCCCCC1 has a reported z-score of -0.315

get_value(item= CCOC(=O)C1=CC[C@@H](c2cccc(Cl)c2)N(S(=O)(=O)c2ccc(C)cc2)[C@H]1c1ccc(C#N)cc1 , readout=z-score) returns -0.905

Lab note: measured z-score of O=C1O[C@H](c2ccccc2)[C@H](c2ccccc2)N2[C@H]1[C@@H](C(=O)Nc1nc3ccccc3s1)[C@]1(C(=O)Nc3ccc(C#CC4=CCCCC4)cc31)[C@H]2c1ccc(OCCO)cc1 was -0.154

Reported z-score ( CN1C(=O)C2C=CC(C(O)c3ccc(Br)cc3)N(Nc3ccccc3)C2C1=O (configuration not stated) ) = -0.398
